Where these numbers come from: ChEMBL document CHEMBL4622985

- TARGET_UNDER_TEST: 5-hydroxytryptamine receptor 2A/Metabotropic glutamate receptor 2 (Homo sapiens, UniProt P28223+Q14416)
- Sequence (P28223 whole entry): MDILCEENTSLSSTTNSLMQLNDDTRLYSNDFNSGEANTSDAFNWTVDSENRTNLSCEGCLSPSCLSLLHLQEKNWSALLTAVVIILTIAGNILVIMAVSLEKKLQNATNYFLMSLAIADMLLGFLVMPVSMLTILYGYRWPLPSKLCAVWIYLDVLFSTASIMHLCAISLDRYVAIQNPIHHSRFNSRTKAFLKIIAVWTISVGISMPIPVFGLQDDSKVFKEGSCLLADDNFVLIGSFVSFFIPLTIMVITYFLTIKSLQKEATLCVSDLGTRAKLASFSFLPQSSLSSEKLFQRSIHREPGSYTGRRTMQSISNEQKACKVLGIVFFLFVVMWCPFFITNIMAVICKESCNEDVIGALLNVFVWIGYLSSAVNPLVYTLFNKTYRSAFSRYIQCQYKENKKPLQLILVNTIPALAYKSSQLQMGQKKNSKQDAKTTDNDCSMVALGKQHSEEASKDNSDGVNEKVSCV
- Sequence (Q14416 whole entry): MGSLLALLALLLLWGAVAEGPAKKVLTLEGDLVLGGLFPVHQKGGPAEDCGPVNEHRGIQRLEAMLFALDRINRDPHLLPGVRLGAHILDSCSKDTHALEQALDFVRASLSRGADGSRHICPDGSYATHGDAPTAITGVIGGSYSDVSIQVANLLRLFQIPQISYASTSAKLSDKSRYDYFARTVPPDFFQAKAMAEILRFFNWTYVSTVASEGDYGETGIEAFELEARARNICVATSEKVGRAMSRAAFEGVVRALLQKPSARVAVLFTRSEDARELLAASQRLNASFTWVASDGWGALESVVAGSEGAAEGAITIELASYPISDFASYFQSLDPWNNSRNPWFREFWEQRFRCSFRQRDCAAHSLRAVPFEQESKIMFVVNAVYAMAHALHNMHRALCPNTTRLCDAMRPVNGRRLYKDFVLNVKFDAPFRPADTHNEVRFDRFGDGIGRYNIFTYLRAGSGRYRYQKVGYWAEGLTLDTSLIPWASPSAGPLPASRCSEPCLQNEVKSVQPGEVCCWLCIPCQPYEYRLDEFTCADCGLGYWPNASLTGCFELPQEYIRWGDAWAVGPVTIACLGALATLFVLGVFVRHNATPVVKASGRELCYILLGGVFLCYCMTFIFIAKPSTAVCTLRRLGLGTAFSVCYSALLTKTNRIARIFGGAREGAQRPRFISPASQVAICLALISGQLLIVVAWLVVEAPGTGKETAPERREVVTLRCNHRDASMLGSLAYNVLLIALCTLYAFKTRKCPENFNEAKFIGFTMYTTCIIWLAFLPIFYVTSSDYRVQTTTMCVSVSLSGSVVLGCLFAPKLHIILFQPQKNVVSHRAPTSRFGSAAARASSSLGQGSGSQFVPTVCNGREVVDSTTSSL
- ASSAY_PROTOCOL: Agonist activity at human 5HT2A/mGlu2 receptor expressed in HEK293 cells co-expressing Gqo5 assessed as increase in intracellular Ca2+ mobilization incubated for 1 hr by Fluo-4 dye based fluorescence assay
- Assay type: functional, cell-based
- TEST_SETTINGS: read-out: EC50
Provide the recorded EC50 for the entries that follow.

[in] // query EC50 value for entry `COc1c(OCCOCCOCCOc2ccc(C3CCN(c4ccn5c(CC6CC6)nnc5c4Cl)CC3)cc2)cccc1C(=O)C1CCN(CCc2ccc(F)cc2)CC1`
[out] 10 to 50 µM

[in] Entry `COc1c(OCCOCCOCCOCCOCCOc2ccc(C3CCN(c4ccn5c(CC6CC6)nnc5c4Cl)CC3)cc2)cccc1C(=O)C1CCN(CCc2ccc(F)cc2)CC1` : reported EC50 = ?
[out] 10 to 50 µM

[in] Look up EC50: `COc1c(OCCOCCOCCOCCOCCOCCOCCOCCOc2ccc(C3CCN(c4ccn5c(CC6CC6)nnc5c4Cl)CC3)cc2)cccc1C(=O)C1CCN(CCc2ccc(F)cc2)CC1`
[out] 10 to 50 µM

[in] Could you tell me which EC50 is on file for `COc1cccc(C(=O)C2CCN(CCc3ccc(F)cc3)CC2)c1OC` ?
[out] > 50 µM

[in] Record request: EC50 value, item `COc1c(OCCOCCOCCOCCOCCOCCOCCOCCOCCOCCOc2ccc(C3CCN(c4ccn5c(CC6CC6)nnc5c4Cl)CC3)cc2)cccc1C(=O)C1CCN(CCc2ccc(F)cc2)CC1`
[out] 10 to 50 µM

[in] Return reported EC50; argument: `COc1c(O)cccc1C(=O)C1CCN(CCc2ccc(F)cc2)CC1`
[out] > 50 µM

[in] Bench note: what EC50 did `COCCOc1cccc(C(=O)C2CCN(CCc3ccc(F)cc3)CC2)c1OC` show?
[out] > 50 µM

[in] Endpoint output: EC50 of `COc1ccccc1C1CCN(c2ccn3c(CC4CC4)nnc3c2Cl)CC1` . Value?
[out] 0.21 µM

[in] # get_value(readout='EC50', item= `COc1c(OCCOCCOCCOCCOCCOCCOc2ccc(C3CCN(c4ccn5c(CC6CC6)nnc5c4Cl)CC3)cc2)cccc1C(=O)C1CCN(CCc2ccc(F)cc2)CC1` )
[out] 10 to 50 µM

[in] Value lookup for EC50; key = `COc1c(OCCOCCOCCOCCOCCOCCOCCOCCOCCOCCOCCOCCOc2ccc(C3CCN(c4ccn5c(CC6CC6)nnc5c4Cl)CC3)cc2)cccc1C(=O)C1CCN(CCc2ccc(F)cc2)CC1`
[out] 10 to 50 µM

[in] Reported EC50, molecule `COc1c(OCCOCCOCCOCCOc2ccc(C3CCN(c4ccn5c(CC6CC6)nnc5c4Cl)CC3)cc2)cccc1C(=O)C1CCN(CCc2ccc(F)cc2)CC1` : ____
[out] 10 to 50 µM
